- assayed-system: His-GST-TVMV-hRIPK1(1-324) (Homo sapiens (Human), UniProt Q13546)
- Sequence (Q13546 1-324): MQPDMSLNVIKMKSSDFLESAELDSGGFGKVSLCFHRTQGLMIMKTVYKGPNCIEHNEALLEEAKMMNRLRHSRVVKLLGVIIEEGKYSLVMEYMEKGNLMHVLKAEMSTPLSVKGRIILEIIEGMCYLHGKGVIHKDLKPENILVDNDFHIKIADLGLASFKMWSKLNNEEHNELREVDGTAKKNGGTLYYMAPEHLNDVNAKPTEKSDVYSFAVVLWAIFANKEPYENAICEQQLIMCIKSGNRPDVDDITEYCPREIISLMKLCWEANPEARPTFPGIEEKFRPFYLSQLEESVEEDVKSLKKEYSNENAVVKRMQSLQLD
- test-method-notes: RIPK1 HTRF Binding Assay
- condition-details: HTRF binding, 1 h at rt; read-out: RIPK1 (IC50)
In this section, each of the compounds is paired with its reported IC50.

[
  {
    "compound": "CC(=O)Nc1cn2nc(-c3cc(C(=O)NCc4cc(F)cc(F)c4O[C@H]4CCOC4)c(C)nc3C)ccc2n1",
    "assayed-system": "His-GST-TVMV-hRIPK1(1-324) (Homo sapiens (Human), UniProt Q13546)",
    "IC50 / nM": 6
  },
  {
    "compound": "CC(=O)Nc1cn2nc(-c3cc(C(=O)NCc4cccnc4OCC4CCCC4)c(C)nc3C)ccc2n1",
    "assayed-system": "His-GST-TVMV-hRIPK1(1-324) (Homo sapiens (Human), UniProt Q13546)",
    "IC50 / nM": 19
  },
  {
    "compound": "COc1ncc(-c2ccc3nc(NC(C)=O)cn3n2)cc1C(=O)NCc1ccc(F)cc1OC1CCOCC1",
    "assayed-system": "His-GST-TVMV-hRIPK1(1-324) (Homo sapiens (Human), UniProt Q13546)",
    "IC50 / nM": 49
  },
  {
    "compound": "CC(=O)Nc1cn2nc(-c3cc(C(=O)NCc4cc(F)cc(F)c4OC4CC(C)OC(C)C4)c(C)nc3C)ccc2n1 (stereo not drawn)",
    "assayed-system": "His-GST-TVMV-hRIPK1(1-324) (Homo sapiens (Human), UniProt Q13546)",
    "IC50 / nM": 49
  },
  {
    "compound": "COc1ccc(F)c(CNC(=O)c2cc(-c3ccc4nc(NC(C)=O)cn4n3)cnc2OC)c1",
    "assayed-system": "His-GST-TVMV-hRIPK1(1-324) (Homo sapiens (Human), UniProt Q13546)",
    "IC50 / nM": 56
  },
  {
    "compound": "COc1nc(C)c(-c2ccc3nc(NC(C)=O)cn3n2)cc1C(=O)NCc1c(F)ccc(F)c1OC",
    "assayed-system": "His-GST-TVMV-hRIPK1(1-324) (Homo sapiens (Human), UniProt Q13546)",
    "IC50 / nM": 17
  },
  {
    "compound": "CC(=O)Nc1cn2nc(-c3ccc(C)c(C(=O)NCc4c(F)cccc4-c4cnn(C)c4)c3)ccc2n1",
    "assayed-system": "His-GST-TVMV-hRIPK1(1-324) (Homo sapiens (Human), UniProt Q13546)",
    "IC50 / nM": 56
  },
  {
    "compound": "Cc1ncc(-c2ccc3nc(NC(=O)CN)cn3n2)cc1C(=O)N[C@H](C)c1cc(OC(F)(F)F)ccc1F",
    "assayed-system": "His-GST-TVMV-hRIPK1(1-324) (Homo sapiens (Human), UniProt Q13546)",
    "IC50 / nM": 91
  },
  {
    "compound": "[2H]C([2H])([2H])Oc1ncc(-c2ccc3nc(NC(C)=O)cn3n2)cc1C(=O)NCc1cc(F)cc(F)c1O[C@@H]1CCOC1",
    "assayed-system": "His-GST-TVMV-hRIPK1(1-324) (Homo sapiens (Human), UniProt Q13546)",
    "IC50 / nM": 17
  }
]
